Reference source for all entries: patent US20100310591A1

Tested on: TPc9.1 T hybridoma with CH27 antigen presenting cells
Experiment: T hybridoma response assay (APC + T hybridoma, HT-2 [3H]TdR uptake readout)
Format: cell-based, murine
Details: Conc. 47 nM
In this section we review reported immunological response to the antigenic epitope (T cell proliferative response) values for a set of substances.

Consider the worked cases shown below.
Field: immunological response to the antigenic epitope (T cell proliferative response) (TPc9.1 T hybridoma with CH27 antigen presenting cells). Entry: Ac-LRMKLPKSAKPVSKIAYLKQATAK-NH2 (SEQ ID NO: 11) [Hybrid 6]
25.3 thousands of counts per minute

Field: immunological response to the antigenic epitope (T cell proliferative response) (TPc9.1 T hybridoma with CH27 antigen presenting cells). Entry: Ac-LRMKLPKSIAYLKQATAK-NH2 (SEQ ID NO: 9) [Hybrid 4]
19.5 thousands of counts per minute

Field: immunological response to the antigenic epitope (T cell proliferative response) (TPc9.1 T hybridoma with CH27 antigen presenting cells). Entry: IAYLKQATAK [Hybrid 1, Ac-IAYLKQATAK—NH2 (SEQ ID NO: 8), reference compound]
29.5 thousands of counts per minute

Below: the item to evaluate.
Field: immunological response to the antigenic epitope (T cell proliferative response) (TPc9.1 T hybridoma with CH27 antigen presenting cells). Entry: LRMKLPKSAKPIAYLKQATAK [Hybrid 5]
26.2 thousands of counts per minute

---

In this section we review reported immunological response to the antigenic epitope (T cell proliferative response) values for a set of substances.
Test system: TPc9.1 T hybridoma with CH27 antigen presenting cells
Assay: T hybridoma response assay (APC + T hybridoma, HT-2 [3H]TdR uptake readout)
Type: cell-based, murine
Details: Conc. 0.18 nM

Consider the worked cases shown below.
Entry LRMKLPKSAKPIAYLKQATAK [Hybrid 5] has what immunological response to the antigenic epitope (T cell proliferative response)?
36.7 thousands of counts per minute

Entry Ac-LRMKLPKSIAYLKQATAK-NH2 (SEQ ID NO: 9) [Hybrid 4] has what immunological response to the antigenic epitope (T cell proliferative response)?
9.1 thousands of counts per minute

Entry Ac-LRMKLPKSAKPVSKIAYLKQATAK-NH2 (SEQ ID NO: 11) [Hybrid 6] has what immunological response to the antigenic epitope (T cell proliferative response)?
11.9 thousands of counts per minute

Below: the item to evaluate.
Entry IAYLKQATAK [Hybrid 1, Ac-IAYLKQATAK—NH2 (SEQ ID NO: 8), reference compound] has what immunological response to the antigenic epitope (T cell proliferative response)?
0 thousands of counts per minute

---

System: TPc9.1 T hybridoma with CH27 antigen presenting cells
Assay: T hybridoma response assay (APC + T hybridoma, HT-2 [3H]TdR uptake readout)
Assay type: cell-based, murine
Conditions: Conc. 0.73 nM
measurement_type: immunological response to the antigenic epitope (T cell proliferative response)

Consider the worked cases shown below.
Entry IAYLKQATAK [Hybrid 1, Ac-IAYLKQATAK—NH2 (SEQ ID NO: 8), reference compound] has what immunological response to the antigenic epitope (T cell proliferative response)?
4 thousands of counts per minute

Entry Ac-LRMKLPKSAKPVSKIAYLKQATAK-NH2 (SEQ ID NO: 11) [Hybrid 6] has what immunological response to the antigenic epitope (T cell proliferative response)?
28.7 thousands of counts per minute

Entry Ac-LRMKLPKSIAYLKQATAK-NH2 (SEQ ID NO: 9) [Hybrid 4] has what immunological response to the antigenic epitope (T cell proliferative response)?
19.2 thousands of counts per minute

Further cases:
Entry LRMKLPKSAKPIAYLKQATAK [Hybrid 5] has what immunological response to the antigenic epitope (T cell proliferative response)?
30.1 thousands of counts per minute
